Reference for the values: patent US20200079833A1

- target-of-assay: T1, GLP-1R (INS1e assay) (UniProt P32301 22-463, limits assumed)
- T1 sequence (looked up): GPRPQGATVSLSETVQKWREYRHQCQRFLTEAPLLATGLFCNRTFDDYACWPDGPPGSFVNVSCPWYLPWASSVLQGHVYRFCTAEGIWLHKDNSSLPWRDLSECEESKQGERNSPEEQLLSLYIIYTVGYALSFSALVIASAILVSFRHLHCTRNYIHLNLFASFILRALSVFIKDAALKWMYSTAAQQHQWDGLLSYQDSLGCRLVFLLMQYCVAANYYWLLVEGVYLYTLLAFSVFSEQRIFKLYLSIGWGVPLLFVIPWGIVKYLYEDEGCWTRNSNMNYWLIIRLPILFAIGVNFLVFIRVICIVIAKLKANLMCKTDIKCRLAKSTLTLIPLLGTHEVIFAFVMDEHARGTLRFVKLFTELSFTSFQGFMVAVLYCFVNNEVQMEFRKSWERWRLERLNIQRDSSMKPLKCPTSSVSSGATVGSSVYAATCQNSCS
- test-protocol: cell-based or functional assay
Starred links: 1 amine or outer side, 2 acyl side, 3 side chain; linkers in the order of their positions; H or OH if unused. Non-standard residues stand in square brackets, D forms with d. Groups on a side chain read outwards from the residue. Primed or numbered codes have the meaning given here. No end group written: not given here. *: point of attachment. Dodecylbenzoate = dodecylbenzoyl lipid group; γGlu = O=C(O)[C@H](CCC(=O)[*:2])N[*:1]; Stearoyl = CCCCCCCCCCCCCCCCCC(=O)*; Palmitoyl = CCCCCCCCCCCCCCCC(=O)*; αMeF = C[C@](N)(Cc1ccccc1)C(=O)O; αMeK = C[C@](N)(CCCCN)C(=O)O; Lauroyl = CCCCCCCCCCCC(=O)*; αMeS = C[C@](N)(CO)C(=O)O; PEG2′ = not defined here; Aib = CC(C)(N)C(=O)O; Ahx = NCCCCCC(=O)O
outcome-measure: INS1e assay EC50 Mean pM GLP-1R

As a guide, the following entries are already answered.
So what does the record say about INS1e assay EC50 Mean pM GLP-1R for H[Aib]EGS[αMeF]TSDV[αMeS]S[αMeF]LEGEAAEEFIK([PEG2′-PEG2′-γGlu-Stearoyl])WVVEGG-NH2 [SEQ ID NO 66] ? 42200 pM

So what does the record say about INS1e assay EC50 Mean pM GLP-1R for H[Aib]EGS[αMeF]TSDV[αMeS]S[αMeF]LEGEAA[αMeK]EFIK([PEG2′-PEG2′-γGlu-Stearoyl])WVVEGG-NH2 [SEQ ID NO 68] ? 3780 pM

So what does the record say about INS1e assay EC50 Mean pM GLP-1R for H[Aib]EGS[αMeF]TSDV[αMeS]S[αMeF]LEGEAAK([PEG2′-PEG2′-γGlu-Stearoyl])EFIA[αMeF]VV[αMeK]GG-NH2 [SEQ ID NO 48] ? 800 pM

So what does the record say about INS1e assay EC50 Mean pM GLP-1R for H[Aib]EGS[αMeF]TSDV[αMeS]S[αMeF]LEGEK([PEG2′-PEG2′-γGlu-Stearoyl])A[αMeK]E[αMeF]IA[αMeF]VV[αMeK]GG-NH2 [SEQ ID NO 111] ? 806 pM

So what does the record say about INS1e assay EC50 Mean pM GLP-1R for H[Aib]EGS[αMeF]TSDVSS[αMeF]LEGEAAK([PEG2′-PEG2′-γGlu-Stearoyl])E[αMeF]IA[αMeF]VV[αMeK]GG-NH2 [SEQ ID NO 46] ? 68000 pM

So what does the record say about INS1e assay EC50 Mean pM GLP-1R for H[Aib]EGS[αMeF]TSDV[αMeS]S[αMeF]LEGEAAK([PEG2′-Lauroyl])E[αMeF]IA[αMeF]VV[αMeK]GG-NH2 [SEQ ID NO 134] ? 123 pM

So what does the record say about INS1e assay EC50 Mean pM GLP-1R for H[Aib]EGS[αMeF]TSDV[αMeS]S[αMeF]LEGEAA[αMeK]E[αMeF]IA[αMeF]VVK([Ahx-Ahx-Ahx-Dodecylbenzoate])GG-NH2 [SEQ ID NO 178] ? 284 pM

So what does the record say about INS1e assay EC50 Mean pM GLP-1R for H[Aib]EGS[αMeF]TSDK([PEG2′-PEG2′-γGlu-Stearoyl])[αMeS]S[αMeF]LEGEAA[αMeK]E[αMeF]IA[αMeF]VV[αMeK]GG-NH2 [SEQ ID NO 119] ? 2080 pM

So what does the record say about INS1e assay EC50 Mean pM GLP-1R for H[Aib]EGS[αMeF]TSDV[αMeS]S[αMeF]LEGK([PEG2′-PEG2′-γGlu-Stearoyl])AA[αMeK]E[αMeF]IA[αMeF]VV[αMeK]GG-NH2 [SEQ ID NO 112] ? 385 pM

So what does the record say about INS1e assay EC50 Mean pM GLP-1R for H[Aib]EGS[αMeF]TSDVSK([PEG2′-PEG2′-PEG2′-Stearoyl])YLEGEAAKE[αMeF]IA[αMeF]VVEGG-NH2 [SEQ ID NO 61] ? 10 pM

List INS1e assay EC50 Mean pM GLP-1R for every entry below, keeping the order given.
1. H[Aib]EGS[αMeF]TSDV[αMeS]S[αMeF]LEGEAAK([PEG2′-PEG2′-γGlu-Palmitoyl])E[αMeF]IA[αMeF]VV[αMeK]GG-NH2 [SEQ ID NO 109]
2. H[Aib]EGS[αMeF]TSDV[αMeS]S[αMeF]LEGEAAK([PEG2′-PEG2′-PEG2′-Stearoyl])E[αMeF]IA[αMeF]VVKGG-NH2 [SEQ ID NO 56]

1. 6340 pM
2. 56 pM
